# TGI listing for each entry below
# Test system: 786-0 renal
# Assay explanation: NCI tumour cell line growth inhibition, 48 h

// solved cases for TGI follow
| Compound | TGI |
| --- | --- |
| Cc1ccc(N=Nc2c(O)ccc3ccccc23)c(C)c1 | > 100 µM |
| CC(NC1CCCC[C@@H]1O)c1ccccc1 (stereo partly drawn) | > 100 µM |

Shift focus to the following entry.
Find the recorded TGI belonging to COc1ccc(C2C3=C(COC3=O)Oc3cc4c(cc32)OCO4)cc1OC (stereo not drawn) and report it.
> 100 µM

###

Entries and their measured TGI follow.
# System: UO-31 renal
# Assay explanation: NCI tumour cell line growth inhibition, 48 h

Take a look at these entries with their results.
| Compound | Experimental value |
| --- | --- |
| CC(C)(C)N=C1C(=O)C2(C)CCC1C2(C)C (stereo not drawn) | > 100 µM |
| CN(CCOc1ccc(NS(C)(=O)=O)cc1)CCc1ccc(NS(C)(=O)=O)cc1 | > 100 µM |

Now consider the entry below.
If you can, please state the reported TGI value of CC(NC1CCCC[C@@H]1O)c1ccccc1 (stereo partly drawn) .
> 100 µM
